B1: TPR 5TU (parent)
chain: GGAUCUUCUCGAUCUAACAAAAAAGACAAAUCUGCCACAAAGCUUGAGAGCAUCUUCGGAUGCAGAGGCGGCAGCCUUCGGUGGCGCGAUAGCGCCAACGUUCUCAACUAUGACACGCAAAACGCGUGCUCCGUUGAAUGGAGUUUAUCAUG

variants of: B1; assay: polymerase ribozyme fitness, log enrichment relative to wild type (log ratio); higher = more active; in vitro selection for triplet polymerase activity
This sample holds only a part of the variants without activity.
Each entry below carries its recorded polymerase ribozyme fitness (log ratio).
value.type: polymerase ribozyme fitness (log ratio)

variant.notation: A22U C99U
value.type: polymerase ribozyme fitness (log ratio)
relation.sign: =
obs.value: -0.0944
//
variant.notation: C38A C76A C93U G117A
value.type: polymerase ribozyme fitness (log ratio)
relation.sign: =
obs.value: -1.25
//
variant.notation: U56C G62U C87U
value.type: polymerase ribozyme fitness (log ratio)
relation.sign: =
obs.value: -0.567
//
variant.notation: C14U C57G C85U G152A
value.type: polymerase ribozyme fitness (log ratio)
relation.sign: =
obs.value: -3.89
//
variant.notation: U148G U151A
value.type: polymerase ribozyme fitness (log ratio)
relation.sign: =
obs.value: -3.95
//
variant.notation: C35A C76A C93U A113U U130G A147G
value.type: polymerase ribozyme fitness (log ratio)
relation.sign: ≤
obs.value: -4.2
//
variant.notation: A40C U55A G88A C108G C118U U130A
value.type: polymerase ribozyme fitness (log ratio)
relation.sign: ≤
obs.value: -4.2
//
variant.notation: C10G U13C G70A U111G U148A
value.type: polymerase ribozyme fitness (log ratio)
relation.sign: ≤
obs.value: -4.2
//
variant.notation: C5U C8U A23C C85U C103A C116U
value.type: polymerase ribozyme fitness (log ratio)
relation.sign: ≤
obs.value: -4.2
//
variant.notation: G11U G48C C79A C93G A119G G141U
value.type: polymerase ribozyme fitness (log ratio)
relation.sign: ≤
obs.value: -4.2
//
variant.notation: C93U A113U A119C G140U
value.type: polymerase ribozyme fitness (log ratio)
relation.sign: =
obs.value: -3.82
//
variant.notation: G88U A91G
value.type: polymerase ribozyme fitness (log ratio)
relation.sign: ≤
obs.value: -4.2
//
variant.notation: C105G A107U U148C
value.type: polymerase ribozyme fitness (log ratio)
relation.sign: ≤
obs.value: -4.2
//
variant.notation: C14G A30U U33G A49C A52U C72G A73G C87U U144G
value.type: polymerase ribozyme fitness (log ratio)
relation.sign: ≤
obs.value: -4.2
//
variant.notation: G42U A60G U61G C96G C99G C125U A150C
value.type: polymerase ribozyme fitness (log ratio)
relation.sign: ≤
obs.value: -4.2
//
variant.notation: C85G A122U C123A
value.type: polymerase ribozyme fitness (log ratio)
relation.sign: =
obs.value: -2.3
//
variant.notation: U53G A113C G133A
value.type: polymerase ribozyme fitness (log ratio)
relation.sign: ≤
obs.value: -4.2
//
variant.notation: G84A C118A
value.type: polymerase ribozyme fitness (log ratio)
relation.sign: =
obs.value: -1.61
//
variant.notation: G70U A122C U144G
value.type: polymerase ribozyme fitness (log ratio)
relation.sign: =
obs.value: -2.06
//
variant.notation: G92A U135A U145C
value.type: polymerase ribozyme fitness (log ratio)
relation.sign: =
obs.value: -3.89
//
variant.notation: G50C C63U U82C A115U U146A
value.type: polymerase ribozyme fitness (log ratio)
relation.sign: =
obs.value: -1.83
//
variant.notation: G94A G124A A150U
value.type: polymerase ribozyme fitness (log ratio)
relation.sign: =
obs.value: 0.987
//
variant.notation: C18G A41C C85A G126U
value.type: polymerase ribozyme fitness (log ratio)
relation.sign: =
obs.value: -0.946
